Biological target: human renin (Homo sapiens)
Sequence (P00797 67-406): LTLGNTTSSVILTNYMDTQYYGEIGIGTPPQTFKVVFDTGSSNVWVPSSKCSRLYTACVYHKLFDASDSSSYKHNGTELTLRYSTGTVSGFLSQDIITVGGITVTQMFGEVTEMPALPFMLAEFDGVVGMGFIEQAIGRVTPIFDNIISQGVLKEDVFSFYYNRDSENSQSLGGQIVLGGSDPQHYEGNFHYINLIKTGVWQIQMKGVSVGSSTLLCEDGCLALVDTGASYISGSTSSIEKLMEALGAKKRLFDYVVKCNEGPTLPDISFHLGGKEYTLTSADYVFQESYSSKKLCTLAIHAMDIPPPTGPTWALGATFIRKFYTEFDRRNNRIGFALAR
Test: Determination of renin IC50 by tGFP FRET assay
Settings: Human recombinant renin, tandem GFP substrate 650 nM, 60 min incubation with compound, pH 7.4, 11-point curve
pIC50: −log10 of the molar value.
observationType: pIC50

Consider the following illustrative entries.
molecule | pIC50
COC(=O)Cn1c(C)cc2cc(OC[C@H]3CNCC(=O)N3c3ccc(OCCCOCc4ccccc4OC)cc3)ccc21 [Example 121] | 8.22
COCCCOc1cc(N2C(=O)CNC[C@@H]2COc2ccc3ccccc3c2)ccc1OC [Example 48] | 5.42
COc1ccc(COC[C@H]2CNCCN2c2ccc(OCCCOCc3ccccc3OC)cc2)cc1 [Example 33] | 5.40

(a) COc1ccccc1COCCCOc1ccc(N2C(=O)CNC[C@@H]2COCc2ccccc2OC)cc1 [Example 10]
(b) COc1cccc(COCCCOc2ccc(N3CCNC[C@@H]3COc3ccc4ccccc4c3)cc2)c1 [Example 89]
(c) COc1ccccc1COCCCOc1ccc(N2C(=O)CNC[C@@H]2COCc2ccc(F)c(C(F)(F)F)c2)cc1 [Example 26]
(d) COc1ccccc1COCCCOc1ccc(N2C(=O)CNC[C@@H]2COc2ccc3c(c2)N(CCOC(C)=O)CCC3)cc1 [Example 31]
(e) COc1ccccc1COCCCOc1ccc(N2C(=O)CNC[C@@H]2COCc2cccc(C)c2)cc1 [Example 15]
Prompt line: In this exercise, place the 5 molecules in ascending sequence of their recorded pIC50. Lab note: record answer as labels in requested order.
Response line: b, a, e, c, d
(b: 4.63, a: 6.06, e: 6.43, c: 6.88, d: 9.38)

(1) COc1ccccc1COCCCOc1ccc(N2C(=O)CNC[C@@H]2COc2ncccn2)cc1 [Example 81]
(2) COc1ccccc1COCCCOc1ccc(N2C(=O)CNC[C@@H]2COCc2ccc(F)cc2)cc1 [Example 8]
Prompt line: Between 1 and 2 , whose recorded pIC50 is greater? Indicate your choice by writing its label.
Response line: 2
(2: 6.34, 1: 4.47)

(P) COc1ccccc1COCCCOc1ccc(N2C(=O)CNC[C@@H]2COCc2ccc(F)c(F)c2)cc1 [Example 4]
(Q) COC(=O)CCn1ccc2cc(OC[C@H]3CNCC(=O)N3c3ccc(OCCCOCc4ccccc4OC)cc3)ccc21 [Example 119]
Prompt line: Field: lower pIC50 | Options: P / Q Indicate your choice by writing its label.
Response line: P
